System: MCF7
PROCEDURE_DETAILS: Antitumor activity against human MCF7 cells assessed as reduction in cell viability incubated for 72 hrs by CCK8 assay
Type: functional, cell-based
SETTINGS: MCF7, 72 h
MEASURED_QUANTITY: pIC50
On this scale, pIC50 is minus log10 of a concentration expressed in M (mol/L).

Below are worked cases with known answers.
Nc1ccn([C@@H]2O[C@H](CO)[C@@H](O)C2(F)F)c(=O)n1
5.36
C[C@H]1[C@@H](OCCN(CCO[C@H]2O[C@@H]3O[C@@]4(C)CC[C@H]5[C@H](C)CC[C@@H]([C@H]2C)[C@@]35OO4)CCO[C@H]2O[C@@H]3O[C@@]4(C)CC[C@H]5[C@H](C)CC[C@@H]([C@H]2C)[C@@]35OO4)O[C@@H]2O[C@@]3(C)CC[C@H]4[C@H](C)CC[C@@H]1[C@@]24OO3
7.05

Now for the compound whose pIC50 we want.
## Input Give the measured pIC50 of C[C@H]1[C@@H](OCCNCCO[C@H]2O[C@@H]3O[C@@]4(C)CC[C@H]5[C@H](C)CC[C@@H]([C@H]2C)[C@@]35OO4)O[C@@H]2O[C@@]3(C)CC[C@H]4[C@H](C)CC[C@@H]1[C@@]24OO3 .
## Output 5.50
